Answer each item with its documented ALP.
species: Rattus norvegicus; experiment: Open TG-GATES - Regimen: Daily Repeat; type: toxicity, organism-based, Sprague-Dawley; set-up: regimen Daily Repeat, gender Male, age 6 weeks; conditions: in vivo, po, 100 mg/kg, […], tissue Plasma, route gavage, dose level Low, time 28 day
Your answer is read as IU/L, so omit the unit and give the number.

The reported value for CC(S)C(=O)NCC(=O)O (centres undefined) in terms of ALP is 1019.8

The reported value for O=C(O)c1ccccc1Nc1ccccc1 in terms of ALP is 1187.4

The reported value for CC(=O)[C@@]1(O)CC[C@H]2[C@@H]3C=C(Cl)C4=CC(=O)CC[C@]4(C)[C@H]3CC[C@@]21C in terms of ALP is 1170.6

The reported value for CCCCNC(=O)NS(=O)(=O)c1ccc(C)cc1 [TOLBUTAMIDE] in terms of ALP is 1233.8

Value source: ChEMBL document CHEMBL3885861
